Source: patent US20200247855A1

Parameter: Kd. Scope: all listed entries.
Tested on: CXCL4
Procedure details: BLI
Kindly write the number and append the unit.

Sample records with Kd:
P1080_IXORI (other) SAGSKGSSAPQSSGDSVVAEFCDTNCTMKKDGKWTECNGDCFCVHVGNETVGRCMRLDGDYDYTSSKTTRRNKKTRNGLCRLDRNRTTVDYPERNTREP	2310 nM
P1074_IXORI (other) GSKESSAHQSSDDSIKAEFCDAKCTMKTDGKWTQCHGGCFCVHVGNETEGRCMRLDGDYDYPSTQPEE	157 nM
P942_IXORI (other) NQLSGPQSSANSNEAVFCDTNCTQGTDEAWSGCRGDCFCVYVGNSTEGRCMMLSGDFDYSTPGAED	148 nM
P1142_AMBCA (other) KPQILQRTDHSTDSDWDPQMCPETCNPSKNISCSSECLCVTLGGGDETGTCFNMSGVDWLGHAQASDGHNDG	381 nM

Reported Kd for P675_IXORI (other) GSNQLSGPQSSANSNDAVFCDTNCTQGTDGAWSGCRGDCFCVHVGNSTEGRCIELIGDFDYSTPGAED : what is it?
422 nM

Reported Kd for P1126_AMBCA (other) KPQILQRTDKSTDSEWDPQTCPETCIPSKNITCSDGCVCVKLGEEEEGTCFNMTGVDWLGSPSDD : what is it?
393 nM
